What LACTATE DEHYDROGENASE was measured for each of the following?
species on record: Rattus norvegicus; test: DrugMatrix - Regimen: Daily Repeat; format: toxicity, organism-based, Sprague-Dawley; set-up: regimen Daily Repeat, gender Male, age 6-8 weeks; conditions: in vivo, iv, 0 mg/kg, 72 h, tissue Plasma, dose level Control, time 3 day, vehicle 100 % SALINE
The figure you give is taken to be in u/L; do not add the unit.

Entry CN(N=O)C(=O)N[C@@H](C=O)[C@@H](O)[C@H](O)[C@H](O)CO — recorded LACTATE DEHYDROGENASE = 536.83

Kindly note the recorded LACTATE DEHYDROGENASE for CC1(C)S[C@@H]2[C@H](NC(=O)[C@H](NC(=O)N3CCNC3=O)c3ccccc3)C(=O)N2[C@H]1C(=O)O , which is 125.33

Item: CC[C@@]1(O)C(=O)OCc2c1cc1n(c2=O)Cc2cc3ccccc3nc2-1 | LACTATE DEHYDROGENASE: 442.5

LACTATE DEHYDROGENASE reported for this compound NCC[C@H](O)C(=O)N[C@@H]1C[C@H](N)[C@@H](O[C@H]2O[C@H](CN)[C@@H](O)[C@H](O)[C@H]2O)[C@H](O)[C@H]1O[C@H]1O[C@H](CO)[C@@H](O)[C@H](N)[C@H]1O : 105.67

---

Exercise: for every item that follows, state its recorded ALKALINE PHOSPHATASE.
species: Rattus norvegicus; test: DrugMatrix - Regimen: Daily Repeat; type: toxicity, organism-based, Sprague-Dawley; design: regimen Daily Repeat, gender Male, age 6-8 weeks; details: in vivo, po, 1500 mg/kg, 72 h, tissue Plasma, route oral GAVAGE, dose level High, time 3 day, vehicle .5 % CMC
Write the answer as a number in u/L, unit excluded.

Briefly, ALKALINE PHOSPHATASE measured for CCOC(=O)[C@H](CCc1ccccc1)N[C@@H](C)C(=O)N1[C@H](C(=O)O)C[C@@H]2CCC[C@@H]21 : 454.33

Per the records, this compound ( NS(=O)(=O)c1cc2c(cc1Cl)NCNS2(=O)=O [HYDROCHLOROTHIAZIDE] ) has ALKALINE PHOSPHATASE equal to 353.33

The recorded ALKALINE PHOSPHATASE for COC(=O)c1ccc(O)cc1 is 433.33

Kindly note the recorded ALKALINE PHOSPHATASE for O=C1CCc2cc(OCCCCc3nnnn3C3CCCCC3)ccc2N1 , which is 340.33

---

organism: Rattus norvegicus; experiment: DrugMatrix - Regimen: Daily Repeat; format: toxicity, organism-based, Sprague-Dawley; design: regimen Daily Repeat, gender Male, age 6-8 weeks; conditions: in vivo, po, 0 mg/kg, 120 h, tissue Plasma, route oral GAVAGE, dose level Control, time 5 day, vehicle 100 % WATER
I would appreciate it if you labelled entries T when ALANINE AMINOTRANSFERASE is 50 u/L or higher, otherwise F.

INPUT: Given C[C@]12Cc3c[nH]nc3C[C@@H]1CC[C@@H]1[C@@H]2CC[C@@]2(C)[C@H]1CC[C@]2(C)O , state whether its ALANINE AMINOTRANSFERASE is at least 50 u/L.
OUTPUT: T

INPUT: For this molecule, is measured ALANINE AMINOTRANSFERASE 50 u/L or higher? Cn1cnc([N+](=O)[O-])c1Sc1ncnc2nc[nH]c12
OUTPUT: T

INPUT: Please indicate if the recorded ALANINE AMINOTRANSFERASE for CN1CCC[C@H]1c1cccnc1 meets or exceeds 50 u/L.
OUTPUT: T

INPUT: Does the reported ALANINE AMINOTRANSFERASE for CC1(C)S[C@@H]2[C@H](NC(=O)[C@H](N)c3ccc(O)cc3)C(=O)N2[C@H]1C(=O)O fall at or above the 50 u/L mark?
OUTPUT: F

INPUT: Has COc1ccc(C(CN(C)C)C2(O)CCCCC2)cc1 (stereo not given) a recorded ALANINE AMINOTRANSFERASE greater than or equal to 50 u/L?
OUTPUT: T

INPUT: Exam item: decide whether the reported ALANINE AMINOTRANSFERASE for COc1cccc(C2(O)CCCCC2CN(C)C)c1 (stereo not given) is at least 50 u/L.
OUTPUT: T

---

organism: Rattus norvegicus; test: DrugMatrix - Regimen: Daily Repeat; type: toxicity, organism-based, Sprague-Dawley; set-up: regimen Daily Repeat, gender Male, age 6-8 weeks; conditions: in vivo, po, 1500 mg/kg, 72 h, tissue Blood, route oral GAVAGE, dose level High, time 3 day, vehicle .5 % CMC
MEASURED_PARAMETER: ERYTHROCYTE COUNT (x10E6/uL)
Please give a number only; it is taken to be in x10E6/uL.

For CCOC(=O)[C@H](CCc1ccccc1)N[C@@H](C)C(=O)N1[C@H](C(=O)O)C[C@@H]2CCC[C@@H]21 the compound record lists ERYTHROCYTE COUNT as 5.12

Entry O=C1CCc2cc(OCCCCc3nnnn3C3CCCCC3)ccc2N1 [CILOSTAZOL] , ERYTHROCYTE COUNT reported as 6.95

COC(=O)c1ccc(O)cc1 [METHYLPARABEN] yielded ERYTHROCYTE COUNT of 5.36

Form: compound = NS(=O)(=O)c1cc2c(cc1Cl)NCNS2(=O)=O [HYDROCHLOROTHIAZIDE] ; ERYTHROCYTE COUNT = 5.96

---

species: Rattus norvegicus; experiment: DrugMatrix - Regimen: Daily Repeat; assay type: toxicity, organism-based, Sprague-Dawley; design: regimen Daily Repeat, gender Male, age 6-8 weeks; conditions: in vivo, po, 0 mg/kg, 120 h, tissue Plasma, route oral GAVAGE, dose level Control, time 5 day, vehicle 100 % WATER
MEASURED_PARAMETER: BLOOD UREA NITROGEN (mg/dL)
Note: unit mg/dL is implicit; provide only the numeric part.

Entry O=C1NC(=O)C(c2ccccc2)(c2ccccc2)N1 ; BLOOD UREA NITROGEN = 15.33

Lab book: BLOOD UREA NITROGEN of CC1COc2c(N3CCN(C)CC3)c(F)cc3c(=O)c(C(=O)O)cn1c23 (stereo not given) noted as 15.5

What the record says about COc1ccc(C(CN(C)C)C2(O)CCCCC2)cc1 (stereo not given) : BLOOD UREA NITROGEN is 17

BLOOD UREA NITROGEN recorded for this compound, COc1cccc(C2(O)CCCCC2CN(C)C)c1 (stereo not given) , is 15

BLOOD UREA NITROGEN reading for Cn1cnc([N+](=O)[O-])c1Sc1ncnc2nc[nH]c12 : 14

Data point: Fc1ccc([C@@H]2CCNC[C@H]2COc2ccc3c(c2)OCO3)cc1 ; BLOOD UREA NITROGEN = 15

Recorded BLOOD UREA NITROGEN (compound Clc1ccc(C(c2ccccc2Cl)C(Cl)Cl)cc1 (stereo not given) ): 15.33

Kindly note the recorded BLOOD UREA NITROGEN for NCC1(CC(=O)O)CCCCC1 , which is 15.67

// BLOOD UREA NITROGEN value for CN1CCC[C@H]1c1cccnc1 : 15.5

Field BLOOD UREA NITROGEN (entry CNCCC=C1c2ccccc2CCc2ccccc21 ) reads 15.33

Sure, the documented BLOOD UREA NITROGEN for C[C@]12Cc3c[nH]nc3C[C@@H]1CC[C@@H]1[C@@H]2CC[C@@]2(C)[C@H]1CC[C@]2(C)O is 15

Note to self: BLOOD UREA NITROGEN recorded for NNC(=O)c1ccncc1 was 17

response.value for Cc1cc(NS(=O)(=O)c2ccc(N)cc2)no1 (field: BLOOD UREA NITROGEN) = 17

Record summary for NC(=O)c1ncn([C@@H]2O[C@H](CO)[C@@H](O)[C@H]2O)n1 : reported BLOOD UREA NITROGEN = 15.33

The compound listed as CN1CCN(C(=O)OC2c3nccnc3C(=O)N2c2ccc(Cl)cn2)CC1 (stereo not given) has a reported BLOOD UREA NITROGEN of 16.17

---

Could you please report measured CHOLESTEROL for the items listed next?
species on record: Rattus norvegicus; assay: DrugMatrix - Regimen: Daily Repeat; type: toxicity, organism-based, Sprague-Dawley; set-up: regimen Daily Repeat, gender Male, age 6-8 weeks; settings: in vivo, iv, 0 mg/kg, 72 h, tissue Plasma, dose level Control, time 3 day, vehicle 100 % SALINE
Number only, in mg/dL; omit the unit.

molecule CN(N=O)C(=O)N[C@@H](C=O)[C@@H](O)[C@H](O)[C@H](O)CO , CHOLESTEROL observed: 67.33

The molecule identified as CC1(C)S[C@@H]2[C@H](NC(=O)[C@H](NC(=O)N3CCNC3=O)c3ccccc3)C(=O)N2[C@H]1C(=O)O registered its CHOLESTEROL at 66.67

molecule NCC[C@H](O)C(=O)N[C@@H]1C[C@H](N)[C@@H](O[C@H]2O[C@H](CN)[C@@H](O)[C@H](O)[C@H]2O)[C@H](O)[C@H]1O[C@H]1O[C@H](CO)[C@@H](O)[C@H](N)[C@H]1O , CHOLESTEROL observed: 80.33

Reported CHOLESTEROL of CC[C@@]1(O)C(=O)OCc2c1cc1n(c2=O)Cc2cc3ccccc3nc2-1 : 63.67
